test system: A673/TR/shEF; experiment: cell viability (LOESS-normalised, relative to median of negative controls) (log2 ratio); higher = more viable cells (less compound effect), active = hit call of the paper (over 3 MAD below the median); settings: 0.25 µM; library screen: screen1; EWS-FLI1 expression: low (doxycycline-induced shRNA knockdown); treatment time: 72 h
About 300 (9.4%) of roughly 3,200 compounds showed activity. The list comes from a sample in which actives are over-represented; it also holds close analogues and randomly drawn compounds.
outcomeMeasure: cell viability (log2)
Numbers only.

Reference set (5 entries):
C=CCc1ccc(OC(=O)c2ccccc2)c(OC)c1 ... -0.0537
NCCNS(=O)(=O)c1cccc2cnccc12 ... -0.0436
COc1ccc(-c2coc3cc(OC)ccc3c2=O)cc1 ... 0.0353
CNCCNS(=O)(=O)c1cccc2cnccc12 ... 0.0846
O=S(=O)(NCCNC/C=C/c1ccc(Br)cc1)c1cccc2cnccc12 ... 0.0474

// next entry
Tested system A673/TR/shEF; cell viability (log2) recorded for CC(C)[C@@H](C)/C=C/[C@@H](C)[C@H]1CC[C@H]2C3=CC=C4C[C@@H](O)CC[C@]4(C)[C@H]3CC[C@]12C was 0.11
